method description: Toxicity liver stage against HepG2, at 10uM
Assay type: cell-based
Design: test concentration 10 uM, cell line HepG2-A16-CD81EGFP
protocol conditions: human, HepG2-A16-CD81EGFP cells; read-out: INHIBITION
recorded endpoint: cytotoxicity at 10 µM (%)
Expressed in %, but write only the number.

Please review the following examples before continuing.
- compound: "O=C(COc1coc(CN2CCSCC2)cc1=O)c1ccccc1"
  units: "%"
  recorded value: 9.21
- compound: "Cc1cc(C)n(CC2CCCN2C(=O)c2cccc3c2OCO3)n1 (centres undefined)"
  units: "%"
  recorded value: -15.7
- compound: "CS(=O)(=O)N1CC2(CCN(C3COC3)C2)Cc2ccccc21 (centres undefined)"
  units: "%"
  recorded value: 11.9

Now for the compound whose cytotoxicity at 10 µM we want.
stdin: Bench note: what cytotoxicity at 10 µM did CCN1C(=O)CC(N(C)Cc2nc3ccccc3c(=O)[nH]2)C1=O (centres undefined) show?
stdout: 2.06

----------
method description: Toxicity liver stage against HepG2, at 10uM
Assay type: cell-based
Design: test concentration 10 uM, cell line HepG2-A16-CD81EGFP
protocol conditions: human, HepG2-A16-CD81EGFP cells; read-out: INHIBITION
Catalogue of compounds with associated cytotoxicity at 10 µM
Give the value, in units of %, as a plain number.

Completed entries (count: 10):
- compound: "CC1=Nc2c(c(=O)[nH]n2C2CCCC2)C(c2ccc(C(=O)O)cc2)S1 (stereo unspecified)"
  units: "%"
  cytotoxicity at 10 µM: -10.4
- compound: "Cc1noc([C@@H]2C[C@H](NS(=O)(=O)Cc3ccccc3)CN2C)n1"
  units: "%"
  cytotoxicity at 10 µM: 4.5
- compound: "c1csc(CCN2CCCC2c2noc(C3CC3)n2)c1 (stereo unspecified)"
  units: "%"
  cytotoxicity at 10 µM: 9.15
- compound: "CN(C)CC(=O)N1CCC2(CCN(Cc3ccccn3)C2=O)C1 (stereo unspecified)"
  units: "%"
  cytotoxicity at 10 µM: 1.23
- compound: "CN(C)c1nc(N)nc(CN2CCCC2c2cccs2)n1 (stereo unspecified)"
  units: "%"
  cytotoxicity at 10 µM: 5.21
- compound: "CC(NC(=O)c1cccs1)C(=O)NCc1ccccc1CN1CCCC1 (stereo unspecified)"
  units: "%"
  cytotoxicity at 10 µM: -14.2
- compound: "CC(=O)c1cccc(S(=O)(=O)NCc2cccnc2N(C)C)c1"
  units: "%"
  cytotoxicity at 10 µM: 4.24
- compound: "Cc1n[nH]c2c1C(c1ccncc1)SCC(=O)N2 (stereo unspecified)"
  units: "%"
  cytotoxicity at 10 µM: 4.96
- compound: "CCC(O)CN1CCN(C(=O)Cc2ccc(C)nc2)CC1 (stereo unspecified)"
  units: "%"
  cytotoxicity at 10 µM: -9.24
- compound: "COC[C@@H]1CCC[C@@]12CN(Cc1ccc(C)s1)CCO2"
  units: "%"
  cytotoxicity at 10 µM: 6.76

Shifting focus to the compound that follows.
stdin: Which cytotoxicity at 10 µM value is on record for O=C(Nc1cccc(N2CCN(CC3CC3)CC2)c1)C1CCCO1 (stereo unspecified) ?
stdout: -1.23

----------
method description: Toxicity liver stage against HepG2, at 10uM
Assay type: cell-based
Design: test concentration 10 uM, cell line HepG2-A16-CD81EGFP
protocol conditions: human, HepG2-A16-CD81EGFP cells; read-out: INHIBITION
Reported cytotoxicity at 10 µM is given for each of the following molecules.
Could you give me the number in %? Just the number is fine.

Study these solved cases before continuing.
- molecule: "CC(=O)NCc1cc2n(n1)CCN(Cc1cccc(CCN)c1)C2"
  recorded value: -19.5
- molecule: "CCCc1nnc(C(=O)N(C)Cc2ccc(OC)cc2)o1"
  recorded value: 2.64
- molecule: "O=C(Cc1ccccn1)N1CC[C@]2(C[C@@H](Oc3ncccc3F)CO2)C1"
  recorded value: -5.79

stdin: Name the recorded cytotoxicity at 10 µM for "CC(=O)N1CCC(C(=O)NCc2ncc(-c3ccccc3)o2)CC1" .
stdout: -63.8

stdin: Any idea what cytotoxicity at 10 µM was measured for "CNC(=O)[C@@H]1C[C@H](n2cc(-c3ccc(CN4CC=CC4)cc3)nn2)CN1" ?
stdout: 3.46

stdin: Value lookup for cytotoxicity at 10 µM; key = CC(NC(=O)CCCN(C)C)c1cn(-c2ccccc2)nn1 (stereo unspecified)
stdout: -22.7

stdin: Suppose we examine the molecule "COc1ccc2nnc(CCCC(=O)NCc3ccccc3OC)n2n1" ; what cytotoxicity at 10 µM value has been reported?
stdout: -5.95

stdin: Which cytotoxicity at 10 µM is listed for Cc1ccccc1C1CCCN(C(=O)c2c[nH]c(=O)c(Cl)c2)C1 (stereo unspecified) ?
stdout: -59.8

stdin: May I ask what cytotoxicity at 10 µM has been recorded for CN(Cc1ccc(Cl)s1)C(=O)CN(C)C1CCCc2ccccc21 (stereo unspecified) ?
stdout: 21.4

stdin: Query (molecule): CCOC(=O)N1CCNC(c2cccs2)C1 (stereo unspecified) ; field requested: cytotoxicity at 10 µM
stdout: -147

stdin: Param item = "CN(C)CCN(Cc1ccc(F)cc1)C(=O)c1ccn(C)c(=O)c1" ; retrieve measured cytotoxicity at 10 µM.
stdout: -4.62
